All figures here come from ChEMBL document CHEMBL5729163.

Catalogue of pIC50 readings, one per entry.
target: Nociceptin receptor (Homo sapiens); experiment: Cell-Based NOP Assay: Formula (I) compounds were tested for antagonism of the nociceptin receptor (NOP) in a cell-based cAMP assay, using the LANCE cAMP Detection Kit, Perkin Elmer (Waltham, Mass.). This assay (LANCE cAMP) is a homogeneous, time-resolved fluorescence resonance energy transfer (TR-FRET) immunoassay designed to measure cAMP produced upon modulation of adenylyl cyclase activity by G protein-coupled receptors (GPCRs).ProtocolCells expressing human opioid NOP (ValiScreen cell line, cat #ES-230-C Perkin Elmer (Waltham, Mass.) were dispensed in simulation buffer (5 mM Hepes, 0.1% BSA, 0.5 mM IBMX in Hanks Buffered Saline Solution) at 2.5 μL cells per well (400 cells/well) into a 1536 white TC-treated assay plate. Compound was then added and plates were incubated for 15 minutes at room temperature. To each well was added 2.5 μL of a solution containing forskolin (3 μM final) and nociceptin peptide (390 pM final) diluted in stimulation buffer, and the plates were incubated for 30 minutes at room temperature. To each well was dispensed 5 μL of LANCE Ultra detection (1:300 dilution of anti-cAMP ULight with a 1:100 dilution of Eu-cAMP tracer diluted in cAMP Detection Buffer) reagent, and the plates were incubated for 1 hr at room temperature. The plate was then read on the ViewLux microplate reader (Perkin Elmer, Waltham, Mass.) using the LANCE 1536 protocol with 60 second exposure times and 50 μs delay. This protocol has an excitation wavelength of 340 nm (DUG11 filter) and emission wavelengths of 615 nm (Eu-Donor) and 665 nm (Alexa 647 cAMP antibody acceptor).Data AnalysisData was analyzed, normalized, and visualized using ACAS (John McNeil & Co.). Efficacy was calculated using activity of the vehicle (DMSO) as 0% efficacy and the activity of the corresponding reference positive control (SCH 221510, Tocris Bioscience (Pittsburgh, Pa.), Catalog number 3240) as 100% efficacy. Activity was calculated as the ratio of donor and acceptor emissions. All curve fits and IC50 determinations were performed using a non-linear regression model. The IC50 value was measured as the concentration at which half-maximal response was calculated.
Sequence (P41146 whole entry): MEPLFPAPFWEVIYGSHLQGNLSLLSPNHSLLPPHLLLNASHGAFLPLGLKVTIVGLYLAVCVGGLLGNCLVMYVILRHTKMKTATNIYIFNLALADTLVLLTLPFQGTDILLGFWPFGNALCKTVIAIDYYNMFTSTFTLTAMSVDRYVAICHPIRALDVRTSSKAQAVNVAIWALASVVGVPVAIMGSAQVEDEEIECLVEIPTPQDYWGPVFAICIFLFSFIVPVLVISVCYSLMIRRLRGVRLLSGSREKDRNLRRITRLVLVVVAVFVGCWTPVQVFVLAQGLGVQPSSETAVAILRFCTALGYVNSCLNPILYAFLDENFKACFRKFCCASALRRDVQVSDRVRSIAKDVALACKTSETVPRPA
pIC50: −log10 of the molar value.

Worked examples, 5 molecules total:
>>> reported_value("NC(=O)C1(NCC[C@H]2CC[C@H](c3ncccc3Cl)CC2)CCOCC1")
"6.00 to 7.00"
>>> reported_value("Fc1ccc([C@H]2CC[C@@H](CCNC3CCCC3(F)F)CC2)c(Cl)c1 (stereo partly specified)")
"7.00 to 8.00"
>>> reported_value("CNC(=O)C1(NCC[C@H]2CC[C@@H](c3ccc(F)cc3F)CC2)CCOCC1")
"7.00 to 8.00"
>>> reported_value("CS(=O)(=O)N1CCC(NCC[C@H]2CC[C@@H](c3ccc(F)cc3Cl)CC2)CC1")
"7.00 to 8.00"
>>> reported_value("Cc1cc(F)ccc1C1CCC(CCNC2CCCCC2)CC1 (stereo unspecified)")
"6.00 to 7.00"

Fill blank: measured pIC50 of the molecule Fc1ccc(Cl)c(C2CCC(CCNC3CCCCC3)CC2)c1 (stereo unspecified) is ____.
6.00 to 7.00

Fill blank: measured pIC50 of the molecule CC1(NCCC2CCC(c3ncccc3Cl)CC2)CCOCC1 (stereo unspecified) is ____.
6.00 to 7.00

Fill blank: measured pIC50 of the molecule NC(=O)C1(NCC[C@H]2CC[C@@H](c3cc(F)ccc3Cl)CC2)CCOCC1 is ____.
7.00 to 8.00

Fill blank: measured pIC50 of the molecule OCC1(NCC[C@H]2CC[C@@H](c3ccc(F)cc3Cl)CC2)CCOCC1 is ____.
8.00 to 9.00

Fill blank: measured pIC50 of the molecule Cc1cc(F)ccc1C1CCC(CCNC2CCOCC2)CC1 (stereo unspecified) is ____.
8.00 to 9.00

Fill blank: measured pIC50 of the molecule NC(=O)C1(NCC[C@H]2CC[C@H](c3ccc(F)cc3C(F)(F)F)CC2)CCOCC1 is ____.
7.00 to 8.00
